Data provenance is PubChem BioAssay (NCATS).

# Test system: TAB109
# methodNotes: qHTS profiling for inhibitors of Plasmodium falciparum proliferation (AID 504749); further: nearly all actives have a fitted effect of over 60% in size; further: potency means the concentration at half of the fitted maximal effect
# conditionDescription: P. falciparum in erythrocytes, SYBR Green DNA, 72 h; series mostly up to 28.7 µM
Inconclusive results are not listed. Activity calls are given as the source filed them. The call rests on the fitted dose curve; in most records, active means well fitted inhibition curve with a large enough effect; inconclusive means small, poorly fitted or top-dose-only effect; inactive means flat fitted curve, though single readings scatter.
observationType: Potency

[[record]]
compound = "C[C@@H]1CC[C@H]2[C@@H](C)C(=O)O[C@@H]3OC4(C)CC[C@@H]1C32OO4 (some centres not stated)"
valuemeasured = "4.5 nM (active)"

[[record]]
compound = "CC1CC[C@@]2(NC1)OC1CC3C4CC[C@@H]5CC(O)CC[C@@]5(C)C4CC[C@]3(C)C1C2C (some centres not stated)"
valuemeasured = "inactive"

[[record]]
compound = "CC(Cc1ccccc1)N(C)C (configuration not stated)"
valuemeasured = "inactive"

[[record]]
compound = "CCCCCc1cc(O)c2c(c1)OC(C)(C)C1CC=C(C)CC21 (configuration not stated)"
valuemeasured = "3160 nM (active)"

[[record]]
compound = "CCOC(=O)c1cncn1[C@@H](C)c1ccccc1"
valuemeasured = "inactive"

[[record]]
compound = "NC(Cc1ccc(Oc2cc(I)c(O)c(I)c2)c(I)c1)C(=O)O (configuration not stated)"
valuemeasured = "inactive"

[[record]]
compound = "OC[C@@H](O)[C@H]1O[C@@H]2OC(C(Cl)(Cl)Cl)O[C@H]2[C@H]1O (some centres not stated)"
valuemeasured = "inactive"

[[record]]
compound = "C=C1CC2C(CC[C@]3(C)C(=O)CCC23)[C@]2(C)C=CC(=O)C=C12 (some centres not stated)"
valuemeasured = "inactive"

[[record]]
compound = "CC(=O)[C@H]1CC[C@H]2C3CC[C@H]4C[C@H](O)CC[C@]4(C)C3CC[C@]12C (some centres not stated)"
valuemeasured = "inactive"

[[record]]
compound = "COC(C(=O)C(O)C(C)O)C1Cc2cc3cc(OC4CC(OC5CC(O)C(OC)C(C)O5)C(OC(C)=O)C(C)O4)c(C)c(O)c3c(O)c2C(=O)C1OC1CC(OC2CC(OC3CC(C)(O)C(OC(C)=O)C(C)O3)C(O)C(C)O2)C(O)C(C)O1 (configuration not stated)"
valuemeasured = "794 nM (active)"

[[record]]
compound = "CC(CO)NC(=O)C1C=C2c3cccc4[nH]cc(c34)CC2N(C)C1 (configuration not stated)"
valuemeasured = "inactive"

[[record]]
compound = "C=C1Nc2ccccc2C(=O)N1c1ccccc1C"
valuemeasured = "inactive"

[[record]]
compound = "CCCCCCC(=O)O[C@H]1CC[C@H]2[C@@H]3CCC4CC(=O)C=C(C)[C@]4(C)[C@H]3CC[C@]12C (some centres not stated)"
valuemeasured = "inactive"

[[record]]
compound = "COC(=O)C1C(OC(=O)c2ccccc2)CC2CCC1N2C (configuration not stated)"
valuemeasured = "inactive"

[[record]]
compound = "CCCCCC(O)C1C(=O)OC(C)C(O)\\C=C/C=C\\C=C/C=C\\C=C(\\C)C(O)C(O)C(O)CC(O)CC(O)CC(O)CC(O)CC1O (configuration not stated)"
valuemeasured = "inactive"

[[record]]
compound = "Cc1cc(C)cc(C(=O)OC2CC3CCC(C2)N3C)c1 (configuration not stated)"
valuemeasured = "inactive"

[[record]]
compound = "[S]=[Sb][S][Sb]=[S]"
valuemeasured = "inactive"

